- System: Ehrlich ascites carcinoma
- Assay explanation: Preventive effect against the growth of Ehrlich ascites carcinoma (Method A)
- Format: in vivo, mice (ICR, female)
- Study conditions: Mus musculus, Ehrlich, ip, 120 h; 0.39 mg/kg/day i.p., 5 days; read-out: Inhibition ratio
# cutoff 10% applies to inhibition in vivo at 0.39 mg/kg; >= gives 1 (yes), < gives 0 (no)

O=NN(CCCl)C(=O)N(CC1CCCO1)C1O[C@H](CO)[C@H](O)[C@H](O)[C@H]1O (stereo partly shown) : 0 (no)
O=NN(CCCl)C(=O)N(Cc1ccccc1)C1O[C@H](CO)[C@@H](O[C@H]2O[C@H](CO)[C@@H](O)[C@H](O)[C@H]2O)[C@H](O)[C@H]1O (stereo partly shown) : 0 (no)
O=NN(CCCl)C(=O)N(Cc1ccccc1)C1OC[C@H](O)[C@H](O)[C@H]1O (stereo partly shown) : 1 (yes)
O=NN(CCCl)C(=O)N(Cc1cccs1)C1O[C@H](CO)[C@@H](O[C@H]2O[C@H](CO)[C@@H](O)[C@H](O)[C@H]2O)[C@H](O)[C@H]1O (stereo partly shown) : 0 (no)
O=NN(CCCl)C(=O)N(CC1CC1)C1OC[C@H](O)[C@H](O)[C@H]1O (stereo partly shown) : 1 (yes)
Cc1ccc(CN(C(=O)N(CCCl)N=O)C2O[C@H](CO)[C@@H](O[C@H]3O[C@H](CO)[C@@H](O)[C@H](O)[C@H]3O)[C@H](O)[C@H]2O)cc1 (stereo partly shown) : 1 (yes)

Here is another molecule to look at.
// query Could you verify whether the entry O=NN(CCCl)C(=O)N(CC1CO1)C1OC[C@H](O)[C@H](O)[C@H]1O (stereo partly shown) shows inhibition in vivo at 0.39 mg/kg of no less than 10%?
// result 1 (yes)

====

- Tested on: Ehrlich ascites carcinoma
- Assay explanation: Preventive effect against the growth of Ehrlich ascites carcinoma (Method A)
- Assay type: in vivo, mice (ICR, female)
- Study conditions: 800 mg/kg/day i.p., 5 days
Endpoint label: Toxic (number of mice died/number of mice used)

// solved cases for Toxic (number of mice died/number of mice used) follow
O=NN(CCCl)C(=O)N(Cc1ccccc1)C1O[C@H](CO)[C@@H](O[C@H]2O[C@H](CO)[C@@H](O)[C@H](O)[C@H]2O)[C@H](O)[C@H]1O (stereo partly drawn) : 5/5
COc1ccc(CN(C(=O)N(CCCl)N=O)C2O[C@H](CO)[C@@H](O[C@H]3O[C@H](CO)[C@@H](O)[C@H](O)[C@H]3O)[C@H](O)[C@H]2O)cc1 (stereo partly drawn) : 5/5
O=NN(CCCl)C(=O)N(Cc1cccs1)C1O[C@H](CO)[C@@H](O[C@H]2O[C@H](CO)[C@@H](O)[C@H](O)[C@H]2O)[C@H](O)[C@H]1O (stereo partly drawn) : 5/5
Cc1ccc(CN(C(=O)N(CCCl)N=O)C2O[C@H](CO)[C@@H](O[C@H]3O[C@H](CO)[C@@H](O)[C@H](O)[C@H]3O)[C@H](O)[C@H]2O)cc1 (stereo partly drawn) : 5/5
O=NN(CCCl)C(=O)N(Cc1ccco1)C1O[C@H](CO)[C@@H](O[C@H]2O[C@H](CO)[C@@H](O)[C@H](O)[C@H]2O)[C@H](O)[C@H]1O (stereo partly drawn) : 5/5

Proceed to the following item.
// query Supply measured Toxic (number of mice died/number of mice used) of CC(c1ccccc1)N(C(=O)N(CCCl)N=O)C1O[C@H](CO)[C@@H](O[C@H]2O[C@H](CO)[C@@H](O)[C@H](O)[C@H]2O)[C@H](O)[C@H]1O (stereo partly drawn) in your reply.
// result 4/5

====

- System: Leukemia L-1210
- Assay explanation: Effect on life span of mice implanted with leukemic cells of L-1210 (Method B)
- Format: in vivo, mice (BDF1, male)
- Study conditions: 25 mg/kg/day i.p., 5 days
Documented ILS across a set of molecules
Write down the numeric answer in % and omit the unit.

Please review the following examples before continuing.
O=NN(CCCl)C(=O)N(Cc1ccco1)C1O[C@H](CO)[C@@H](O[C@H]2O[C@H](CO)[C@@H](O)[C@H](O)[C@H]2O)[C@H](O)[C@H]1O (stereo partly shown) : 65.3
COc1ccc(CN(C(=O)N(CCCl)N=O)C2O[C@H](CO)[C@@H](O[C@H]3O[C@H](CO)[C@@H](O)[C@H](O)[C@H]3O)[C@H](O)[C@H]2O)cc1 (stereo partly shown) : 50.7

Next item in the queue.
// query // output ILS; input O=NN(CCCl)C(=O)N(Cc1ccccc1)C1O[C@H](CO)[C@@H](O[C@H]2O[C@H](CO)[C@@H](O)[C@H](O)[C@H]2O)[C@H](O)[C@H]1O (stereo partly shown) ; system Leukemia L-1210
// result 55.2

====

- Assay explanation: Preventive effect against the growth of Ehrlich ascites carcinoma (Method A)
- Assay type: in vivo, mice (ICR, female)
- Study conditions: mouse, in vivo, ip; max dose, 100% inhibition without death; doses of the table in mg/kg/day; read-out: MTD (Maximum Tolerated Dose)
Endpoint label: MTD at 168 h (mg/kg/day)
Write the number in mg/kg/day without appending the unit.

Observe how each entry below is paired with its result.
O=NN(CCCl)C(=O)N(CCc1ccccc1)C1O[C@H](CO)[C@@H](O[C@H]2O[C@H](CO)[C@@H](O)[C@H](O)[C@H]2O)[C@H](O)[C@H]1O (some centres unmarked) : 200
O=NN(CCCl)C(=O)N(Cc1ccccc1)C1OC[C@H](O)[C@H](O)[C@H]1O (some centres unmarked) : 100
O=NN(CCCl)C(=O)N(Cc1ccco1)C1O[C@H](CO)[C@@H](O[C@H]2O[C@H](CO)[C@@H](O)[C@H](O)[C@H]2O)[C@H](O)[C@H]1O (some centres unmarked) : 400
O=NN(CCCl)C(=O)N(Cc1cccs1)C1O[C@H](CO)[C@@H](O[C@H]2O[C@H](CO)[C@@H](O)[C@H](O)[C@H]2O)[C@H](O)[C@H]1O (some centres unmarked) : 400
O=NN(CCCl)C(=O)N(Cc1ccccc1)C1O[C@H](CO)[C@@H](O[C@H]2O[C@H](CO)[C@@H](O)[C@H](O)[C@H]2O)[C@H](O)[C@H]1O (some centres unmarked) : 400
COc1ccc(CN(C(=O)N(CCCl)N=O)C2O[C@H](CO)[C@@H](O[C@H]3O[C@H](CO)[C@@H](O)[C@H](O)[C@H]3O)[C@H](O)[C@H]2O)cc1 (some centres unmarked) : 400

// query Answer with the recorded MTD at 168 h of O=NN(CCCl)C(=O)N(CC1CCCO1)C1O[C@H](CO)[C@H](O)[C@H](O)[C@H]1O (some centres unmarked) only.
// result 100

// query Fill in MTD at 168 h for record O=NN(CCCl)C(=O)N(CC1CC1)C1O[C@H](CO)[C@H](O)[C@H](O)[C@H]1O (some centres unmarked)
// result 100

// query Indicate the recorded MTD at 168 h value for this molecule: O=NN(CCCl)C(=O)N(CC1CO1)C1OC[C@H](O)[C@H](O)[C@H]1O (some centres unmarked)
// result 50

// query Query MTD at 168 h for O=NN(CCCl)C(=O)N(CC1CC1)C1OC[C@H](O)[C@H](O)[C@H]1O (some centres unmarked)
// result 100

// query Give the measured MTD at 168 h for O=NN(CCCl)C(=O)N(Cc1cccs1)C1OC[C@H](O)[C@H](O)[C@H]1O (some centres unmarked)
// result 100

====

Reported Toxic (number of mice died/number of mice used) is given for each of the following compounds.
- Tested on: Ehrlich ascites carcinoma
- Assay explanation: Preventive effect against the growth of Ehrlich ascites carcinoma (Method A)
- Assay type: in vivo, mice (ICR, female)
- Study conditions: 200 mg/kg/day i.p., 5 days
- Method: (A) Preventive effect against the growth of Ehrlich ascites tumor 10^6 tumor cells of Ehrlich ascites carcinoma were inoculated intraperitoneally into a group of five femal mice (ICR mice, body weight: 19-23 g). A test compound was dissolved in a physiological saline solution and administered intraperitoneally to the mice. […] The volume of ascites in the treated mice were measured after 7 days of the experiment.

O=NN(CCCl)C(=O)N(CC1CCCO1)C1O[C@H](CO)[C@H](O)[C@H](O)[C@H]1O (stereo partly drawn) : 5/5
O=NN(CCCl)C(=O)N(CC1CC1)C1OC[C@H](O)[C@H](O)[C@H]1O (stereo partly drawn) : 5/5
O=NN(CCCl)C(=O)N(Cc1ccccc1)C1OC[C@H](O)[C@H](O)[C@H]1O (stereo partly drawn) : 5/5
O=NN(CCCl)C(=O)N(Cc1cccs1)C1OC[C@H](O)[C@H](O)[C@H]1O (stereo partly drawn) : 5/5
O=NN(CCCl)C(=O)N(Cc1ccco1)C1O[C@H](CO)[C@@H](O)[C@H]1O (stereo partly drawn) : 5/5

The record that follows has no Toxic (number of mice died/number of mice used) shown yet.
// query Lab note: record Toxic (number of mice died/number of mice used) of O=NN(CCCl)C(=O)N(CC1CC1)C1O[C@H](CO)[C@H](O)[C@H](O)[C@H]1O (stereo partly drawn) tested on Ehrlich ascites carcinoma.
// result 3/5
